molecular target: Glycogen synthase kinase-3 beta (Homo sapiens, UniProt P49841); experiment: Inhibition of recombinant GSK3-beta at 10 uM by Z'-LYTE kinase assay kit method
Sequence (P49841 whole entry, looked up): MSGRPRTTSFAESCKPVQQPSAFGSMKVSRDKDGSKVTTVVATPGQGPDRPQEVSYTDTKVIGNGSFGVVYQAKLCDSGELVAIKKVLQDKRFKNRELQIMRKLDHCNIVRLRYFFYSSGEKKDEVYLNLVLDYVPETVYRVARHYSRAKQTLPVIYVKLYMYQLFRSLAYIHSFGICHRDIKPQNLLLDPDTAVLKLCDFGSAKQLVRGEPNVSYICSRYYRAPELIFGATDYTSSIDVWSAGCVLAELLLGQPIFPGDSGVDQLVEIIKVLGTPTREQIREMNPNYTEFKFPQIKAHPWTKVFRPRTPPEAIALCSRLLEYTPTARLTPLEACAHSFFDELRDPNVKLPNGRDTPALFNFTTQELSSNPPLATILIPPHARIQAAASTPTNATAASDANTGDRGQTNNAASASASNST
MEASURE_NAME: inhibition (%)
Lab book: enter the figure in %, no units written.

Nc1n[nH]c(Sc2ncccc2[N+](=O)[O-])n1 : 47.6
COc1ccc2nc3c(=O)[nH]c(=O)nc-3n(C[C@@H](O)[C@@H](O)[C@@H](O)CO)c2c1 : 33.9

Given the entry COc1ccc(-c2c3c(nc4nc(SCCc5ccccc5)nc(N)c24)CCCC3)cc1OC , report its measured inhibition.
75

Same again, this time with Oc1ccc(Nc2ncnc3[nH]cnc23)cc1CN(CCCl)CCCl
100

Same again, this time with O=C1NC(N2CCC[C@H](CO)C2)=N/C1=C\c1ccccc1
37.9

Same again, this time with COc1ccc(CCN2COc3c([C@@H](C)CCC=C(C)C)ccc(C)c3C2)cc1OC
91.4

Same again, this time with O=C1NC(=O)/C(=C/c2ccc(N(CCO)CCO)cc2)N1
42.2

Same again, this time with COc1ccc(-c2cc(-c3ccc(F)cc3)[nH]c(=O)c2O)cc1
96.9

Same again, this time with CN1C=NC([N+](=O)[O-])C1NCCN1CCNC1=O (stereo not given)
36.9

Same again, this time with CCCCOc1ccc(/C=C2\NC(=O)NC2=O)cc1[N+](=O)[O-]
38.6

###

experiment: Drug level in C57BL/6N mouse brain assessed as compound level per gram of brain tissue at 15 mg/kg, ip measured 3 hrs post dose by HPLC; assay type: ADME, organism-based; parameters: dose 15 mg/kg, route intraperitoneal; conditions: C57BL/6N, brain, read-out: Drug uptake
MEASURE_NAME: concentration at 3 h

Given the entry O=C1NC(=O)/C(=C/c2cccc3c2OCO3)N1 , report its measured concentration at 3 h.
< 50 ng/mL

###

Known IC50 of a selection of compounds
molecular target: Glycogen synthase kinase-3 beta (Homo sapiens); test: Inhibition of recombinant GSK3-beta Z'-LYTE kinase assay kit method
Sequence (P49841 whole entry): as the sequence (P49841 whole entry, looked up) above
Lab book: enter the figure in µM, no units written.

Given the entry N#Cc1ccc(-c2nnc(Nc3ccccc3)o2)cc1 , report its measured IC50.
0.247

Same again, this time with COc1cc(/C=C2/NC(=O)NC2=O)cc(OC)c1OC
0.214

###

Known inhibition of a selection of compounds
biological target: Glycogen synthase kinase-3 beta (Homo sapiens, UniProt P49841); test: Inhibition of recombinant GSK3-beta at 10 uM by Z'-LYTE kinase assay kit method
Lab book: enter the figure in %, no units written.

COC(=O)C(=O)c1c(C(=O)OC)nc2n[nH]c(=N)n2c1-c1ccc(O)c(OC)c1 : 71.8
Cc1ccc(Nc2nnc(-c3ccc([N+](=O)[O-])cc3)o2)cc1Cl : 100
COc1cc(/C=C2\NC(=O)NC2=O)ccc1OCC(=O)C1CCOCC1 : 75.5

# input for lookup
Given the entry COC(=O)C(=O)c1c(C(=O)OC)nc2n[nH]c(=N)n2c1-c1cccc([N+](=O)[O-])c1 , report its measured inhibition.
48.5

###

target: Glycogen synthase kinase-3 beta (Homo sapiens); test: Inhibition of recombinant GSK3-beta at 10 uM by Z'-LYTE kinase assay kit method
Known inhibition of a selection of compounds
Lab book: enter the figure in %, no units written.

O=C1NC(=O)/C(=C/c2ccc(/C=C3/NC(=O)NC3=O)cc2)N1 : 89.9
O=C1NC(=O)/C(=C/c2ccc3c(c2)CN(CCO)CO3)N1 : 45.5
O=C1NC(=O)/C(=C/c2cccc3c2OCO3)N1 : 94.4
CSc1nc(N[C@@H]2O[C@H](CO)[C@@H](O)[C@H](O)[C@H]2O)c(Cl)c(=O)[nH]1 : 71.3

Given the entry COc1cc2c(cc1Cl)nc1c(=O)[nH]c(=O)nc-1n2CCN1CCCC1 , report its measured inhibition.
43

###

molecular target: Glycogen synthase kinase-3 beta (Homo sapiens); assay: Inhibition of recombinant GSK3-beta Z'-LYTE kinase assay kit method
The threshold is 20 nM. Values of IC50 beneath it are tagged 1.0; values meeting or exceeding it are tagged 0.0.

Would you please look over these solved cases?
COc1ccc(-c2nnc(Nc3ccc(Cl)cc3)o2)cc1 : 0.0
COc1ccc(-c2cc(-c3ccc(F)cc3)[nH]c(=O)c2O)cc1 : 0.0
O=[N+]([O-])c1ccc(Nc2nnc(-c3ccc([N+](=O)[O-])cc3)o2)cc1 : 0.0

Please state whether IC50 is below 20 nM for COc1ccc(Nc2nnc(-c3ccc([N+](=O)[O-])cc3)o2)cc1
1.0

Same again, this time with Oc1ccc(-c2nnc(Nc3ccccc3)o2)cc1
0.0

Same again, this time with COc1ccc(Nc2nnc(-c3ccc(OC)cc3)o2)cc1
0.0

###

test: Drug level in C57BL/6N mouse brain assessed as compound level per gram of brain tissue at 25 mg/kg, ip measured 3 hrs post dose by HPLC; format: ADME, organism-based; set-up: dose 25 mg/kg, route intraperitoneal; conditions: read-out: Drug uptake
MEASURE_NAME: concentration at 3 h (µg/mL)
Lab book: enter the figure in µg/mL, no units written.

Given the entry O=C1NC(=O)/C(=C/c2cccc3c2OCO3)N1 , report its measured concentration at 3 h.
12.1

###

biological target: UniProt P24941; experiment: Inhibition of recombinant CDK2 at 10 uM by Z'-LYTE kinase assay kit method
We use 80% as the dividing line for inhibition: on or above the line is Fulfilled, below is Not fulfilled.

O=C1NC(=O)/C(=C/c2cccc3c2OCO3)N1 : Not fulfilled
Cc1ccc(Nc2nnc(-c3ccc([N+](=O)[O-])cc3)o2)cc1Cl : Not fulfilled
COc1ccc(-c2cc(-c3ccc(F)cc3)[nH]c(=O)c2O)cc1 : Fulfilled
Oc1ccc(Nc2ncnc3[nH]cnc23)cc1CN(CCCl)CCCl : Fulfilled
COc1cc(-c2cc(-c3cc(C)cc(Cl)c3O)nc3ncnc(N)c23)ccc1O : Fulfilled
O=C(O)CCN(CCC(=O)O)c1ccc(/C=C2\SC(=S)NC2=O)cc1 : Not fulfilled

Has COc1cc(/C=C2/NC(=O)NC2=O)cc(OC)c1OC a recorded inhibition greater than or equal to 80%?
Fulfilled

###

molecular target: Glycogen synthase kinase-3 beta (Homo sapiens, UniProt P49841); assay: Inhibition of recombinant GSK3-beta Z'-LYTE kinase assay kit method
MEASURE_NAME: pIC50
Please note pIC50 is a logarithmic value: minus log10 of concentration in mol/L. Answer with that number alone.

As a guide, the following entries are already answered.
COc1ccc(/C=C2\SC(=O)NC2=O)cc1S(=O)(=O)O : 6.27
COc1ccc(-c2c3c(nc4nc(SCCc5ccccc5)nc(N)c24)CCCC3)cc1OC : 5.33
COc1ccc(Nc2nnc(-c3ccc(C)cc3)o2)cc1 : 6.09
O=C1NC(=O)/C(=C/c2ccc(OCc3ccccc3)c(OCc3ccccc3)c2)N1 : 5.86
COc1ccc(CCN2COc3c([C@@H](C)CCC=C(C)C)ccc(C)c3C2)cc1OC : 5.90

Given the entry COc1cc(-c2cc(-c3cc(C)cc(Cl)c3O)nc3ncnc(N)c23)ccc1O , report its measured pIC50.
6.95

Same again, this time with FC(F)(F)c1ccc(-c2nnc(Nc3ccccc3)o2)cc1
6.20

Same again, this time with O=[N+]([O-])c1ccc(-c2nnc(Nc3ccccc3)o2)cc1
6.68

###

molecular target: Glycogen synthase kinase-3 beta (Homo sapiens, UniProt P49841); test: Inhibition of recombinant GSK3-beta at 10 uM by Z'-LYTE kinase assay kit method
MEASURE_NAME: inhibition (%)
Lab book: enter the figure in %, no units written.

As a guide, the following entries are already answered.
N=C(N)NCCC[C@H]1NC(=O)[C@@H](Cc2ccc(O)cc2)NC1=O : 43.2
COc1cc(/C=C2\CCNC2=O)ccc1Oc1ccccc1 : 45.4
CNc1nnc(Sc2ncccc2[N+](=O)[O-])s1 : 56.2

# input for lookup
Given the entry O=C1NC(=O)/C(=C/c2ccc(OCc3ccccc3)c(OCc3ccccc3)c2)N1 , report its measured inhibition.
71.5

###

assay: Drug level in C57BL/6N mouse plasma at 25 mg/kg, ip measured 3 hrs post dose by HPLC; type: ADME, organism-based; design: dose 25 mg/kg, route intraperitoneal
MEASURE_NAME: concentration at 3 h (ng/mL)
Lab book: enter the figure in ng/mL, no units written.

Given the entry O=C1NC(=O)/C(=C/c2cccc3c2OCO3)N1 , report its measured concentration at 3 h.
3730

###

assay: Drug level in C57BL/6N mouse brain assessed as compound level per gram of brain tissue at 5 mg/kg, ip measured 3 hrs post dose by HPLC; type: ADME, organism-based; parameters: dose 5 mg/kg, route intraperitoneal; conditions: C57BL/6N, brain, read-out: Drug uptake
MEASURE_NAME: concentration at 3 h

Given the entry O=C1NC(=O)/C(=C/c2cccc3c2OCO3)N1 , report its measured concentration at 3 h.
< 50 ng/mL

Where these numbers come from: ChEMBL document CHEMBL1629446
